Data credit: PubChem BioAssay AID1578

# key: entry, value: inhibition
Test: NOD1 signaling inhibitors, primary screen, cell-based, luminescence, uHTS (AID 1578);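 also: HEK-293T reporter cells stimulated with the NOD1 agonist gamma-tri-DAP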
Details: NOD1-driven NF-kB luciferase reporter cells, at 4 µM, stronger effect = higher value
About 3,000 (1%) of roughly 290,000 compounds were called active. Many of the other results were omitted from the sample, so actives are more common in it than they were.

# molecule, display unit, inhibition
records = [
    ("Oc1ccc(N=Nc2c(O)ccc3ccccc23)cc1", "%", 24),
    ("COc1cccc(NC(=O)CC(=O)c2ccc([N+](=O)[O-])cc2)c1", "%", -3.4),
    ("CCOC(=O)C1CCN(C(=O)CN(c2cc(Cl)ccc2OC)S(=O)(=O)c2ccccc2)CC1", "%", -33.5),
    ("COc1cccc(-c2nc(C(=O)NCC3CCCO3)cc3c2[nH]c2ccccc23)c1 (stereo unspecified)", "%", 51.4),
    ("Cc1nc(SCC(N)=O)c(C#N)c(C)c1C", "%", 5.5),
    ("CC(C(=O)Nc1ccc2c(c1)OCO2)N(c1ccc(Cl)cc1)S(C)(=O)=O (stereo unspecified)", "%", -9.6),
    ("COc1ccc(C)cc1NC(=O)NNC(=O)C(C)Oc1ccc(F)cc1Cl (stereo unspecified)", "%", -17.8),
    ("COc1ccc(C(CC(=O)O)NC(=O)C2CCCCC2)cc1 (stereo unspecified)", "%", 19.1),
    ("Cc1cc(C)c(Nc2cc(S(=O)(=O)O)c(N)c3c2C(=O)c2ccccc2C3=O)c(C)c1", "%", 69.6),
    ("O=C(O)CC(NC(=O)C1CCCCC1)c1ccc(OC2CCCC2)cc1 (stereo unspecified)", "%", 65.3),
    ("CC(C)Oc1ccc(C(CC(=O)O)NC(=O)C2CCCCC2)cc1 (stereo unspecified)", "%", -11.6),
    ("O=C1ON=C(c2ccccc2)/C1=C/c1ccc(-c2ccccc2[N+](=O)[O-])o1", "%", 46.2),
    ("Nc1c(S(=O)(=O)O)cc(NC(=O)c2ccccc2)c2c1C(=O)c1ccccc1C2=O", "%", 11.8),
    ("O=C(c1ccc(Cl)c(S(=O)(=O)N2CCCCC2)c1)N1CCCCC1", "%", -30.5),
    ("O=C(CCCn1cc([N+](=O)[O-])cn1)Nc1cccnc1", "%", -11.6),
    ("CC(C)N(C)Cc1nnnn1CC(=O)N(C)Cc1cccc(Cl)c1", "%", -14.1),
    ("COc1ccc(/C=N/NC(=O)CCn2nnc3ccccc32)cc1", "%", -3.7),
    ("COc1ccc(Cn2c(/C=C/c3ccccc3)nc3ccccc32)cc1", "%", -65.7),
    ("Oc1ccc2ccccc2c1/C=N/c1nccs1", "%", -6),
    ("COc1ccc(NS(=O)(=O)c2cc(NC(=O)CC(=O)c3ccc([N+](=O)[O-])cc3)ccc2C)cc1", "%", 54.7),
    ("COc1ccc(C(=O)CC(=O)Nc2ccc([N+](=O)[O-])cc2)cc1", "%", -14.5),
    ("O=C(NCC1CCCO1)c1cc2c([nH]c3ccccc32)c(-c2cccc(Br)c2)n1 (stereo unspecified)", "%", 33.6),
    ("CCOP(=O)(OCC)/C(=N/OC(=O)c1ccccc1C)C(N)=O", "%", -58.9),
    ("O=C(O)CCn1cc(/C=C/C(=O)c2ccc(Cl)cc2)c(-c2ccc(Br)cc2)n1", "%", 52.9),
    ("CCOC(=O)N1CCC(N(CCN(C)C)C(=S)Nc2cccc(Cl)c2)CC1", "%", 0.8),
    ("Oc1ccc2ccccc2c1N=Nc1nccs1", "%", 106),
]

----------
Test: NOD1 signaling inhibitors, primary screen, cell-based, luminescence, uHTS (AID 1578);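 also: HEK-293T reporter cells stimulated with the NOD1 agonist gamma-tri-DAP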
Conditions: NOD1-driven NF-kB luciferase reporter cells, at 4 µM, stronger effect = higher value
The campaign covered roughly 290,000 compounds. About 3,000 (1%) were called active. The list comes from a sample in which actives are over-represented; it also holds close analogues and randomly drawn compounds.
# key: entry, value: inhibition

# compound, inhibition / %
records = [
    ("O=c1c2[nH]c3ccc(F)cc3c2ncn1CCC1=CCCCC1", -0.7),
    ("COCC1CCN(C(=O)c2cc(COc3ccccc3SC)on2)C1 (configuration not stated)", -17.6),
    ("CC(=O)NC(CC(=O)Oc1ccc(C)cc1Br)c1ccccc1 (configuration not stated)", -28.4),
    ("CCN(CC)c1ccc(/C=c2\\sc3nc4ccccc4n3c2=O)c(O)c1", 33.8),
    ("Cc1cc(/C=C2/NC(=O)NC2=O)c(C)n1-c1ccccn1", -34.5),
    ("Cc1ccc(S(=O)(=O)Nc2ccccc2N2CCOCC2)cc1", -11.5),
    ("Cc1cccc(C)c1OCc1cc(C(=O)N2CCC(c3ccncc3)CC2)no1", 6.6),
]

----------
# key: entry, value: inhibition
Experiment: NOD1 signaling inhibitors, primary screen, cell-based, luminescence, uHTS (AID 1578);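 also: HEK-293T reporter cells stimulated with the NOD1 agonist gamma-tri-DAP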
Settings: NOD1-driven NF-kB luciferase reporter cells, at 4 µM, stronger effect = higher value
About 3,000 (1%) of roughly 290,000 compounds were called active. This is one part of a sample in which actives are shown more often than they occur.

# compound, display unit, inhibition
data = [
    ("Cc1c(CCC(=O)O)c(=O)n2c([nH]c3ccccc32)c1C#N", "%", 0.9),
    ("COc1cc(NS(=O)(=O)c2ccc(NC(=S)NC(=O)c3sc4cc(F)ccc4c3Cl)cc2)nc(OC)n1", "%", 47.7),
    ("O=C(NCc1cccnc1)C1CCCN(S(=O)(=O)c2cccc3nsnc23)C1 (stereo unspecified)", "%", -7.8),
    ("CCCC(C)c1nc(C(N)=O)c2[nH]c(=O)n(-c3ccc(OC)c(OC)c3)c2n1 (stereo unspecified)", "%", -11.9),
    ("O=C(COC(=O)CSCC(=O)N1CCCCC1)Nc1ccc(Cl)cc1", "%", 0),
    ("Cc1cc(N2CCN(c3nc(-c4ccc([N+](=O)[O-])cc4)cs3)CC2)c2ccccc2n1", "%", 3.5),
    ("CCCSc1nc(SCC(=O)NCc2ccccc2)c2c3c(sc2n1)COC(C)(C)C3", "%", -25.4),
    ("COc1ccc(NC(=O)CSc2ccc(-c3sc(C)nc3C)nn2)cc1", "%", -17.2),
    ("CCOCCCNC(=S)NNC(=O)CCn1nc(C)c(Br)c1C", "%", -19.5),
    ("O=C(Nc1nc(-c2ccccc2)cs1)c1ccc(N2CCOCC2)c([N+](=O)[O-])c1", "%", 104),
    ("Cc1cc(N2CCN(c3nc(-c4ccccc4)cs3)CC2)c2ccccc2n1", "%", -3.1),
    ("CCCNC(=O)c1ccc(N2CCC3(CC2)CC(c2ccccc2)=NO3)c(NC(=O)c2cccc(C)c2)c1", "%", 43.2),
    ("CCC(SC1=NCCS1)C(=O)Nc1nnc(-c2ccccc2OC)s1 (stereo unspecified)", "%", -17.6),
    ("O=C1c2ccccc2C(=O)N1c1ncc(Cc2ccc(Cl)cc2)s1", "%", 25.4),
    ("COc1ccc(C(=O)n2cnc3ccccc32)cc1", "%", -10.8),
    ("Cc1ccc(Sc2nnc(Cc3ccccc3)c3ccccc23)cc1", "%", 70),
    ("Cc1c(CCC(C)C)c(=O)n2c([nH]c3ccccc32)c1C#N", "%", 91.2),
    ("CCn1nc(C)c(NC(=O)/C=C/c2cnn(C)c2C)c1C", "%", 11),
    ("Nc1nc(Nc2ccc(Cl)cc2)nc2ccccc12", "%", 24.4),
    ("COc1ccc(S(=O)(=O)NC(Cc2ccccc2)C(=O)O)cc1 (stereo unspecified)", "%", -1.3),
    ("CCN(C(=O)COc1ccccc1)c1nnc(-c2cccnc2)s1", "%", -10.9),
]

----------
# key: entry, value: inhibition
Test: NOD1 signaling inhibitors, primary screen, cell-based, luminescence, uHTS (AID 1578);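 also: HEK-293T reporter cells stimulated with the NOD1 agonist gamma-tri-DAP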
Conditions: NOD1-driven NF-kB luciferase reporter cells, at 4 µM, stronger effect = higher value
In all, about 290,000 compounds went through this assay and about 3,000 (1%) were called active. What follows is part of a selection rich in actives, with near analogues and random picks from the rest.

# molecule, inhibition
rows = [
    ("CN1CCN(c2ncnc3sc(-c4ccccc4)cc23)CC1", "32% (inactive)"),
    ("CC(C)(C)C1=CC(=O)C(N2CCOCC2)=CC1=O", "3.6% (inactive)"),
    ("Cc1ccc(Cn2c(S(=O)(=O)O)nc3ccccc32)cc1", "-25.7% (inactive)"),
    ("Cc1cc(=O)oc2cc(NC(=O)c3ccccc3OC(F)F)ccc12", "-62.7% (inactive)"),
    ("CC1=NNC(=O)C1C(c1ccc(Cl)cc1)C(C#N)C#N (stereo not drawn)", "-7.3% (inactive)"),
    ("CCOC(=O)c1c(NC(=O)CSc2nnc(C)c(=O)[nH]2)sc(C)c1C", "17.3% (inactive)"),
    ("COc1ccc(-n2cc(CNC3CCOCC3)c(-c3cccc(F)c3)n2)cc1", "21.8% (inactive)"),
    ("O=c1cc(C(F)(F)F)[nH]c2c(C(F)(F)F)cccc12", "72.8% (active)"),
    ("CCCCS(=O)(=O)/C=C\\C1C2C=CC(C2)C1S(=O)(=O)CCCC (stereo not drawn)", "6.2% (inactive)"),
    ("Cc1ccc(S(=O)(=O)CCc2nnc(NC(=O)C3CCCCC3)s2)cc1", "1.5% (inactive)"),
    ("CC(=O)c1cc2c(cc1NC(=O)CCCC(=O)O)OCO2", "-9.2% (inactive)"),
    ("CC1=C(C)C(=O)C(N2CCOCC2)=CC1=O", "-11.2% (inactive)"),
    ("NNC(=O)c1cccc(COc2ccc3c(c2)CCC3)c1", "62.3% (inactive)"),
    ("COc1ccc(OCc2cccc(C(=O)Nn3cc([N+](=O)[O-])cn3)c2)cc1", "50.9% (active)"),
    ("Cc1nn(C)c(Cl)c1NC(=O)OCc1ccc(Cl)cc1Cl", "68.3% (active)"),
    ("Cc1cccc(C)c1NC(=O)CSc1nnc([C@@H]2CCCN2C(=O)OC(C)(C)C)o1", "-0.7% (inactive)"),
    ("CN1CCN(C(=O)CCC(=O)O)CC1", "-14.8% (inactive)"),
    ("CCOc1ccc(NC(c2ccccc2)P(=O)(OC)OC)cc1 (stereo not drawn)", "73.2% (active)"),
    ("O=c1cc(C(F)(F)F)[nH]c2c(OC(F)(F)F)cccc12", "15.5% (inactive)"),
    ("COc1ccc(/C=N/NC(N)=S)cc1", "-8.2% (inactive)"),
    ("CCOCCCNC(=S)Nc1ccc2nc(N3CCOCC3)cc(C)c2c1", "-4% (inactive)"),
    ("O=[N+]([O-])c1ccc(CN2CCCCCC2)cc1", "-21% (inactive)"),
    ("CC1Cc2ccccc2N1CC(=O)Nc1ccc(S(=O)(=O)N(C)C)cc1 (stereo not drawn)", "-7.7% (inactive)"),
    ("CC(NC(=O)C1CCCC1)C1CC2CCC1C2 (stereo not drawn)", "96.5% (active)"),
    ("CCCCS(=O)(=O)/C=C\\C=C/S(=O)(=O)CCCC", "97.7% (active)"),
    ("CCOC(=O)c1c(NC(=O)CSc2nnc(C)c(=O)[nH]2)sc2c1CCCC2", "11.2% (inactive)"),
    ("CS(=O)(=O)c1nc2ccccc2n1Cc1ccccc1", "13.9% (inactive)"),
    ("O=C(NCc1cccnc1)C1CCCN(S(=O)(=O)c2ccccc2)C1 (stereo not drawn)", "-13.3% (inactive)"),
    ("Cc1cccc2c1CC(C)(C)N=C2C1=C(O)CCCC1=O", "-19.9% (inactive)"),
    ("C=CCN1C(=O)/C(=C2/C(=O)N(CC(=O)O)c3ccccc32)S/C1=N/c1nccs1", "-5.4% (inactive)"),
    ("CC(NC(=O)C1CC=CCC1C(=O)O)C1CC2CCC1C2 (stereo not drawn)", "-30.7% (inactive)"),
    ("NC(=O)c1ccc(-c2ncc(-c3ccccc3)o2)cc1", "14.6% (inactive)"),
    ("O=S(=O)(NC1CC1)c1ccccc1", "-1% (inactive)"),
]
